# Tested on: HT29 colon
# protocolSummary: NCI tumour cell line growth inhibition, 48 h
property: TGI

// worked examples, TGI included
>>> print(df.to_string())
                                   molecule    result
0  O=c1[nH]c(Nc2ccccc2)nc2c1ncn2CC(O)CSCCO (stereo not given)  > 100 µM
1  CO/N=C(\COc1ccc2c(c1)[nH]c1ccccc12)c1ccc(OC)cc1  > 100 µM
2  CCN1C(=O)N(CC)C2C1NN=c1s/c(=C\c3ccc(Cl)cc3Cl)c(=O)n12 (stereo not given)   12.3 µM
3       Cc1ccc(Nc2nc3[nH]ccc3c(=O)[nH]2)cc1  > 100 µM

Now for a further molecule.
input: Using known records, supply TGI for [N-]=[N+]=Nc1c(Cc2ccccc2)c(Cl)nc2ccccc12
output: > 100 µM

----------
# Tested on: UACC-62 melanoma
# protocolSummary: NCI tumour cell line growth inhibition, 48 h
Listed compounds paired with reported TGI
Write the number in µM without appending the unit.

In [3]: df
Out[3]:
                                   compound  quantitativeresult
0  Fc1ccc(C(OCCN2CCN(CCCc3ccccc3)CC2)c2ccc(F)cc2)cc1                21.4
1  COC(=O)C1(NC(=O)C(CC(=O)OCc2ccccc2)NC(=O)OCc2ccccc2)CCCCCC1 (configuration not stated)                34.3
2  O=C(Nc1ccc(N2C(=O)CSC2c2ccccc2O)cc1)c1ccc(N2C(=O)CSC2c2ccccc2O)cc1 (configuration not stated)                98.1

input: Using known records, supply TGI for N#Cc1c(-c2ccc(Cl)cc2)c2c(nn3c4ccc5ccccc5c4nnc23)[nH]c1=O
output: 3.24

----------
Listed molecules paired with reported TGI
# System: NCI-H23 lung
# protocolSummary: NCI tumour cell line growth inhibition, 48 h

// worked examples, TGI included
                                   molecule    result
0  c1ncn(C23C4C5C6C4C2C6C53)n1 (stereo unspecified)  > 100 µM
1  CCOC(=O)C(C#N)(Cc1c[nH]c2ccccc12)NC(C)=O (stereo unspecified)  > 100 µM
2  C[C@@H]1OC(=O)C[C@H]2CC(=O)N(CCC3CN(C(=O)OCc4ccccc4)c4ccccc43)C[C@@H]21 (stereo partly specified)  > 100 µM
3  COc1ccc(N2C(=O)C3c4[nH]c5ccc(OCc6ccccc6)cc5c4C4CCC(c5ccccc5)CC4C3C2=O)cc1 (stereo unspecified)   32.4 µM
4  CCc1n[nH]c(=O)n1CCCCCCCCCCCCn1c(CC)n[nH]c1=O   94.4 µM

input: Tell me its TGI on NCI-H23 lung: O=C(c1ccc2ccccc2c1)c1c(C(F)(F)F)n([O-])c2ccc(C(F)(F)F)cc2[n+]1=O
output: 10.2 µM

----------
# System: A549 NSCLC
# protocolSummary: NCI tumour cell line growth inhibition, 48 h
property: TGI

>>> df
                                   compound    result
0  N=C1C(=N)c2ccccc2-c2ccccc21.[Cl-].[Ru+2].c1ccc(-c2ccccn2)nc1.c1ccc(-c2ccccn2)nc1  > 100 µM
1           Oc1cccc(Nc2nc3ccccc3c3occc23)c1   22.8 µM
2  Cc1c(/C=N/NC(=O)c2ccccc2O)c(=O)n(-c2ccccc2)n1C  > 100 µM
3  O=C(Nc1ccccc1)N(C1=NCC(CI)S1)c1ccc(F)c(F)c1 (stereo unspecified)  > 100 µM
4  CCO/C(=N/S(=O)(=O)C(F)(F)F)N(C(C)C)C(C)C  > 100 µM
5  O=C1C=CC(=O)c2c1ccc1c3ccccc3n(Cc3ccc([N+](=O)[O-])cc3)c21  > 100 µM

input: Using known records, supply TGI for OC1[C@@H]2[C@@H](O)CCCN2C[C@@H](O)[C@H]1O (stereo partly specified)
output: > 100 µM

input: Using known records, supply TGI for O=c1[nH]/c(=C/c2ccc(OCc3ccccc3)cn2)c(=O)[nH]/c1=C/c1ccccc1
output: > 100 µM

input: Using known records, supply TGI for CCc1c(C#N)c(=O)[nH]c(=O)n1CCN1CCN(C(=O)NCCCCCCNC(=O)N2CCN(CCn3c(CC)c(C#N)c(=O)[nH]c3=O)CC2)CC1
output: > 100 µM

input: Using known records, supply TGI for CCc1c2c(nc3ccc(OCc4ccc(B(O)O)cc4)cc13)-c1cc3c(c(=O)n1C2)COC(=O)[C@]3(O)CC
output: > 32.3 µM

input: Using known records, supply TGI for c1ccc(C2ONC3=NCCN32)cc1 (stereo unspecified)
output: > 100 µM

input: Using known records, supply TGI for NC(=O)Nc1c(Cl)cc(S(N)(=O)=O)cc1Cl
output: > 100 µM

input: Using known records, supply TGI for CC1=C(C(=O)Nc2ccccc2C)C(c2ccc(Cl)cc2)C(C(=O)Nc2ccccc2C)=C(C)N1
output: > 100 µM

input: Using known records, supply TGI for O=C(NCCCOC(=O)CCCCCCCCC(=O)OCCCNC(=O)NC(=O)c1c[nH]c(=O)[nH]c1=O)NC(=O)c1c[nH]c(=O)[nH]c1=O
output: > 100 µM

input: Using known records, supply TGI for C/C(=N/O)c1cccc(Nc2cc(-n3nnc4ccccc43)nc3ccccc23)c1
output: > 72.9 µM

input: Using known records, supply TGI for Cc1ccc(C)c(NC(=O)C(=O)C(C(=O)c2ccc3ccccc3c2)C2OC(=O)c3ccccc32)c1 (stereo unspecified)
output: 45.7 µM

input: Using known records, supply TGI for CNC(C)(C)Cc1ccc(Cl)cc1
output: > 100 µM

input: Using known records, supply TGI for S=C1c2ccc(Cl)cc2-n2cnnc2C2CSCN12 (stereo unspecified)
output: > 100 µM

input: Using known records, supply TGI for CN(C)CC(O)c1ccc(Cl)c2ccccc12 (stereo unspecified)
output: > 100 µM

input: Using known records, supply TGI for O=C(O)CCNS(=O)(=O)c1ccc(NC(=O)c2ccccc2)cc1
output: > 100 µM

input: Using known records, supply TGI for COC(=O)c1sc(C(=O)OC)c2c1CS(=O)C2
output: > 100 µM

input: Using known records, supply TGI for N=C1C(O)C2(I)c3ccccc3N3C(=N)C(O)C4c5ccccc5N1C4C32 (stereo unspecified)
output: > 100 µM

input: Using known records, supply TGI for COc1cccc(N2C(=O)CSC2c2cccc(Oc3ccccc3)c2)c1 (stereo unspecified)
output: > 100 µM

input: Using known records, supply TGI for C=CCOC(=O)N1c2ccc(O[Si](C)(C)C(C)(C)C)cc2[C@@]23O[C@@]24[C@@H]1C#C/C=C\C#C[C@]3(O)C(OC)(OC)C[C@@H]4C
output: > 100 µM

input: Using known records, supply TGI for CCOC(=O)c1c(C)n(Cc2ccc(Cl)cc2Cl)c2c1cc(O)c1[nH]c3c(c12)CCCC3
output: > 100 µM

input: Using known records, supply TGI for c1ccc(NN(Cc2cnccn2)c2ccccc2)cc1
output: > 100 µM

input: Using known records, supply TGI for Cc1ccc(S(=O)(=O)NC(=O)Nc2nnc(S(N)(=O)=O)s2)cc1
output: > 100 µM
